# testedTarget: human LXRβ (Homo sapiens, UniProt P55055)
# Construct: biotin (biotinylated; biotinylation tag not described); made in house; host or cells: E. coli
# Sequence (P55055 whole entry): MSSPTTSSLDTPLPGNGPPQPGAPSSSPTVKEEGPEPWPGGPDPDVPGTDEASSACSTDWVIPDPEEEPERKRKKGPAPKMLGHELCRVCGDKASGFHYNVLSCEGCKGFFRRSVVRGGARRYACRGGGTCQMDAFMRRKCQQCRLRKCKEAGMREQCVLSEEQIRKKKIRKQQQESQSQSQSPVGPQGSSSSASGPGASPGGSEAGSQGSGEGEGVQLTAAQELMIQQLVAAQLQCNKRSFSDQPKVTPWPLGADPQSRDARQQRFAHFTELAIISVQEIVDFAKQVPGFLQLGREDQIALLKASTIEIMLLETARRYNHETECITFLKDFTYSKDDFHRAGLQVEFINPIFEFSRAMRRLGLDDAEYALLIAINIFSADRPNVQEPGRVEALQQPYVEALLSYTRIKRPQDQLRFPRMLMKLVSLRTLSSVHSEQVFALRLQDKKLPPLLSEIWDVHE
# measurementNotes: Ligand-binding test procedure for human LXRβ (3H T0901317 competition, flash plates)
# settings: biotinylated hLXRβ, tracer 3H T0901317
measureName: IC50 (nM)

P. O=C(O)c1c(Cl)cccc1NCc1cccc(-c2c(Cc3ccccc3)cnc3c(C(F)(F)F)cccc23)c1 [Example 111]
Q. COc1cc(NCc2cccc(-c3c(Cc4ccccc4)cnc4c(C(F)(F)F)cccc34)c2)c(Cl)cc1C(=O)O [Example 18]
R. O=C(O)c1cccc(Oc2cccc(-c3c(Cc4ccccc4)cnc4c(Cl)cccc34)c2)c1 [Example 125]
S. O=C(O)CCc1cccc(NCc2cccc(-c3c(Cc4ccccc4)cnc4c(C(F)(F)F)cccc34)c2)c1 [Example 43]
Inquiry: Put the listed items above in order, lowest IC50 first. Lab note: record answer as labels in requested order.
Reply text: S, Q, R, P

----------
# testedTarget: human LXRα (Homo sapiens, UniProt Q13133)
# Sequence (Q13133 whole entry): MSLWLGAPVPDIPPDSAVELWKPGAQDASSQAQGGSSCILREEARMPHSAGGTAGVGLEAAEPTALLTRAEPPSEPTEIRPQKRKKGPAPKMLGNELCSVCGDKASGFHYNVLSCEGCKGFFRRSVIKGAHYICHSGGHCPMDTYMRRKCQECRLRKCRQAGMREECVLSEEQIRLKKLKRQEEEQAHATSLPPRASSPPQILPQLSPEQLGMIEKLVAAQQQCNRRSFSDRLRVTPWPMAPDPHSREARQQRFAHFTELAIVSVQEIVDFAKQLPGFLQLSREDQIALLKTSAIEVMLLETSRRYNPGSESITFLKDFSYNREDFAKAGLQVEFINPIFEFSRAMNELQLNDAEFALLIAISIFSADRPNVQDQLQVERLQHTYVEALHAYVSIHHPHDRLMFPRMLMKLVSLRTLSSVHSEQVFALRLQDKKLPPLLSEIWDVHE
measureName: IC50 (nM)

COc1cc(NCc2cccc(-c3c(Cc4ccccc4)cnc4c(C(F)(F)F)cccc34)c2)c(Cl)cc1C(=O)O ... 201
O=C(O)CCc1ccc(NCc2cccc(-c3c(Cc4ccccc4)cnc4c(C(F)(F)F)cccc34)c2)cc1 ... 333

I. O=C(O)c1c(Cl)cccc1NCc1cccc(-c2c(Cc3ccccc3)cnc3c(C(F)(F)F)cccc23)c1
II. COc1cc(COc2cccc(-c3c(Cc4ccccc4)cnc4c(C(F)(F)F)cccc34)c2)ccc1C(=O)O
Inquiry: # argmax over IC50 for candidates I and II // respond with label for picked entry
Reply text: I

P. CC(C)C[C@H](NC(=O)c1cccc(COc2cccc(-c3c(Cc4ccccc4)cnc4c(C(F)(F)F)cccc34)c2)c1)C(=O)O
Q. O=C(O)c1c(F)cccc1NCc1cccc(-c2c(Cc3ccccc3)cnc3c(C(F)(F)F)cccc23)c1
R. Cc1cnc2c(C(F)(F)F)cccc2c1-c1cccc(CNc2ccc(C(=O)O)c(Cl)c2)c1
S. O=C(O)c1cccc2c(NCc3cccc(-c4ccnc5c(C(F)(F)F)cccc45)c3)cccc12
T. O=C(O)Cc1ccc(NCc2cccc(-c3ccnc4c(C(F)(F)F)cccc34)c2)c2ccccc12
Inquiry: Ascending by IC50, please. Lab note: record answer as labels in requested order.
Reply text: Q, R, P, S, T
(Q: 121 nM, R: 613 nM, P: 1160 nM, S: 3270 nM, T: 8830 nM)

A. CSCC[C@H](NC(=O)c1cccc(COc2cccc(-c3c(Cc4ccccc4)cnc4c(C(F)(F)F)cccc34)c2)c1)C(=O)O
B. O=C(O)c1cc(NCc2cccc(-c3c(Cc4ccccc4)cnc4c(C(F)(F)F)cccc34)c2)ccc1Cl
Inquiry: // which entry reports the smaller IC50, A or B ? // respond with label for picked entry
Reply text: A

----------
# testedTarget: human LXRα (Homo sapiens)
measureName: IC50 (nM)

Solved cases below.
O=C(O)c1c(F)cccc1OCc1cccc(-c2c(Cc3ccccc3)cnc3c(C(F)(F)F)cccc23)c1 [Example 89] ... 3980
O=C(O)c1cc(F)cc(Oc2cccc(-c3c(Cc4ccccc4)cnc4c(Cl)cccc34)c2)c1 [Example 123] ... 723

I. O=C(O)c1ccc(OCc2cccc(-c3c(Cc4ccccc4)cnc4c(C(F)(F)F)cccc34)c2)c(Cl)c1 [Example 85]
II. Cc1cc(NCc2cncc(-c3c(Cc4ccccc4)cnc4c(C(F)(F)F)cccc34)c2)c(C)cc1CC(=O)O [Example 2]
Inquiry: # argmax over IC50 for candidates I and II // respond with label for picked entry
Reply text: I

----------
# testedTarget: human LXRβ (Homo sapiens)
# Construct: biotin (biotinylated; biotinylation tag not described); made in house; host or cells: E. coli
# measurementNotes: Ligand-binding test procedure for human LXRβ (3H T0901317 competition, flash plates)
# settings: IC50 (μM) LXRα binding/IC50 (μM) LXRβ binding
measureName: Binding ratio a/b

Solved cases below.
O=C(O)c1cc(Br)cc(Oc2cccc(-c3c(Cc4ccccc4)cnc4c(Cl)cccc34)c2)c1 [Example 122] ... 2
Cc1cnc2c(C(F)(F)F)cccc2c1-c1cccc(CNc2cccc(F)c2C(=O)O)c1 [Example 115] ... 1
Cc1cc(C(=O)O)c(C)cc1NCc1cncc(-c2c(Cc3ccccc3)cnc3c(C(F)(F)F)cccc23)c1 [Example 14] ... 22

P. O=C(O)CCc1cccc(NCc2cccc(-c3c(Cc4ccccc4)cnc4c(C(F)(F)F)cccc34)c2)c1 [Example 43]
Q. CC(C)C[C@H](NC(=O)c1cccc(COc2cccc(-c3c(Cc4ccccc4)cnc4c(C(F)(F)F)cccc34)c2)c1)C(=O)O [Example 96]
Inquiry: // which entry reports the smaller Binding ratio a/b, P or Q ? // respond with label for picked entry
Reply text: Q
(Q: 2, P: 6)

a. O=C(O)[C@@H]1CCCN1C(=O)c1cccc(COc2cccc(-c3c(Cc4ccccc4)cnc4c(C(F)(F)F)cccc34)c2)c1 [Example 59]
b. Cc1c(CC(=O)O)ccc(NCc2cccc(-c3ccnc4c(C(F)(F)F)cccc34)c2)c1C [Example 22]
c. O=C(O)c1cc(NCc2cccc(-c3c(Cc4ccccc4)cnc4c(C(F)(F)F)cccc34)c2)ccc1Cl [Example 82]
d. COc1ccc(C(=O)O)cc1C#Cc1cccc(-c2c(Cc3ccccc3)cnc3c(C(F)(F)F)cccc23)c1 [Example 131]
e. O=C(O)c1ccc(Cn2ccc3c(-c4c(Cc5ccccc5)cnc5c(C(F)(F)F)cccc45)cccc32)cc1 [Example 127]
Inquiry: Ascending by Binding ratio a/b, please. Lab note: record answer as labels in requested order.
Reply text: e, d, c, a, b

a. O=C(O)c1cc(F)cc(Oc2cccc(-c3c(Cc4ccccc4)cnc4c(Cl)cccc34)c2)c1 [Example 123]
b. Cc1cc(NCc2cncc(-c3c(Cc4ccccc4)cnc4c(C(F)(F)F)cccc34)c2)c(C)cc1CC(=O)O [Example 2]
c. O=C(O)[C@@H]1CCCN1C(=O)c1ccc(COc2cccc(-c3c(Cc4ccccc4)cnc4c(C(F)(F)F)cccc34)c2)cc1 [Example 54]
d. Cc1cc(C(=O)O)c(C)cc1NCc1cccc(-c2c(Cc3ccccc3)cnc3c(C(F)(F)F)cccc23)c1 [Example 12]
Inquiry: Please give the order of these molecules when sorted by Binding ratio a/b, largest value leading. Lab note: record answer as labels in requested order.
Reply text: b, d, c, a

P. O=C(O)Cc1ccc(NCc2cccc(-c3c(Cc4ccccc4)cnc4c(C(F)(F)F)cccc34)c2)cc1Cl [Example 50]
Q. O=C(O)c1ccc(COc2cccc(-c3c(Cc4ccccc4)cnc4c(C(F)(F)F)cccc34)c2)c(Cl)c1 [Example 113]
Inquiry: # argmax over Binding ratio a/b for candidates P and Q // respond with label for picked entry
Reply text: P

----------
# testedTarget: human LXRβ (Homo sapiens, UniProt P55055)
# Construct: biotin (biotinylated; biotinylation tag not described); made in house; host or cells: E. coli
# measurementNotes: Ligand-binding test procedure for human LXRβ (3H T0901317 competition, flash plates)
# settings: IC50 (μM) LXRα binding/IC50 (μM) LXRβ binding
measureName: Binding ratio a/b

O=C(O)c1ccc(Cl)cc1NCc1cccc(-c2c(Cc3ccccc3)cnc3c(C(F)(F)F)cccc23)c1 ... 2
O=C(O)c1ccc(OCc2cccc(-c3c(Cc4ccccc4)cnc4c(C(F)(F)F)cccc34)c2)c(F)c1 ... 3
O=C(O)c1ccc2cc(NCc3cccc(-c4ccnc5c(C(F)(F)F)cccc45)c3)ccc2c1 ... 6
Cc1cc(OCc2cncc(-c3c(Cc4ccccc4)cnc4c(C(F)(F)F)cccc34)c2)c(C)cc1CC(=O)O ... 18
O=C(O)c1cc(F)ccc1NCc1cccc(-c2c(Cc3ccccc3)cnc3c(C(F)(F)F)cccc23)c1 ... 1
O=C(O)CC1CCc2c(OCc3cccc(-c4c(Cc5ccccc5)cnc5c(C(F)(F)F)cccc45)c3)cccc21 (stereo not drawn) ... 7

A. C#CCC(C(=O)O)c1cccc2c(OCc3cccc(-c4ccnc5c(C(F)(F)F)cccc45)c3)cccc12 (stereo not drawn)
B. O=C(O)Cc1cccc2c(OCc3cccc(-c4ccnc5c(C(F)(F)F)cccc45)c3)cccc12
C. Cc1cc(CC(=O)O)cc(NCc2cccc(-c3c(C)cnc4c(C(F)(F)F)cccc34)c2)c1C
Inquiry: Please give the order of these compounds when sorted by Binding ratio a/b, largest value leading. Lab note: record answer as labels in requested order.
Reply text: B, A, C

----------
# testedTarget: human LXRβ (Homo sapiens)
pIC50: −log10 of the molar value.
measureName: pIC50

O=C(O)c1cccc(Oc2cccc(-c3c(Cc4ccccc4)cnc4c(C(F)(F)F)cccc34)c2)c1 [Example 126] ... 6.87
O=C(N[C@@H](Cc1c[nH]cn1)C(=O)O)c1ccc(COc2cccc(-c3c(Cc4ccccc4)cnc4c(C(F)(F)F)cccc34)c2)cc1 [Example 61] ... 6.84
O=C(O)c1ccc2cc(OCc3cccc(-c4c(Cc5ccccc5)cnc5c(C(F)(F)F)cccc45)c3)ccc2c1 [Example 39] ... 7.00

I. O=C(O)Cc1cccc2c(NCc3cccc(-c4c(Cc5ccccc5)cnc5c(C(F)(F)F)cccc45)c3)cccc12 [Example 8]
II. O=C(O)c1ccc(Cl)cc1NCc1cccc(-c2c(Cc3ccccc3)cnc3c(C(F)(F)F)cccc23)c1 [Example 91]
III. O=C(O)CCc1ccc(NCc2cccc(-c3c(Cc4ccccc4)cnc4c(C(F)(F)F)cccc34)c2)cc1 [Example 27]
IV. Cc1c(C(=O)O)cc(Br)c(NCc2cccc(-c3c(Cc4ccccc4)cnc4c(C(F)(F)F)cccc34)c2)c1C [Example 108]
Inquiry: Please give the order of these compounds when sorted by pIC50, largest value leading. Lab note: record answer as labels in requested order.
Reply text: I, III, II, IV
